Data credit: patent US20260274955A1

Task for the reader: assign each of the following binders its reported Anti-CD28 Fab (SEQ ID NOs: 202, 203) signal.
biological target: T1, anti-CD28 Fab (SEQ ID NOs: 202, 203); assay: phage ELISA on captured Fab;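 also: ELISA with clonal phage supernatants added to wells preincubated with CD28 antigen or with blocking buffer only, bound phage detected by HRP-conjugated anti-M13 antibody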
T1 construct: biotinylated and captured on neutravidin coated plates in the phage ELISA
T1 sequence (VH, as listed by the source, chain 1 of 2): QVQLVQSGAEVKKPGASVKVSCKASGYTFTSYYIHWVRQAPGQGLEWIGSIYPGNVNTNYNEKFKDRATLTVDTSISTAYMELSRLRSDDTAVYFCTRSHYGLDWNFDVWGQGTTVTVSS
T1 sequence (VL, as listed by the source, chain 2 of 2): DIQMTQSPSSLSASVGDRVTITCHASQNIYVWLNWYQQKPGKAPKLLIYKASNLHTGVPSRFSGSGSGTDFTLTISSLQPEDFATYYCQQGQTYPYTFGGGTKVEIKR
Answers are plain numbers.

Field: example entries. Status: answers known.
Binder	Measured
YCEGHSLEHIAKCL (on phage, pIII fusion) [Phage-584]	1.46
YCDGHSWQYMWKCI (on phage, pIII fusion) [Phage-531]	1.57
YCEGHSAAYMQKCL (on phage, pIII fusion) [Phage-513]	1.6

Let us examine a further case.
Quick note, Anti-CD28 Fab (SEQ ID NOs: 202, 203) signal for YCEGHLSQYMSKCL (on phage, pIII fusion) [Phage-466] landed at 1.66
